B1: library; numbered along this chain (parent)
chain: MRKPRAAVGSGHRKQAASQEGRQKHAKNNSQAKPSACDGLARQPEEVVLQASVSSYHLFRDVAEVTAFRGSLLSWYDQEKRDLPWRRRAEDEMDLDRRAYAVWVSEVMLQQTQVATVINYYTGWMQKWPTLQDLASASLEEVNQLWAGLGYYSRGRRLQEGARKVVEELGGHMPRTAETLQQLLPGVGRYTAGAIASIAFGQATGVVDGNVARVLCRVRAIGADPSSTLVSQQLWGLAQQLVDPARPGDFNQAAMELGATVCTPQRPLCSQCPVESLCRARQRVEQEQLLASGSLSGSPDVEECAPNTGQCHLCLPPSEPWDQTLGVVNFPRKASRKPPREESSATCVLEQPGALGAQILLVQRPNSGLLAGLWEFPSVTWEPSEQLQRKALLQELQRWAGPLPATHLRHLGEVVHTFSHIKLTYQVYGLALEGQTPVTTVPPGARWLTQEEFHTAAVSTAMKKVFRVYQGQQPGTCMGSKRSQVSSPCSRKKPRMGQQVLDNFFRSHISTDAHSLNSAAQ

# Variants of: B1
# Protocol notes: 8OG:A repair function score (normalized; synonymous = 0, nonsense = -1) (normalized log-likelihood score); higher = more repair activity (WT-like);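 further: cells sorted at 72 h after reporter transfection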
# Settings: with 8OG:A DNA repair reporter (GFP) in HEK-293 MUTYH KO cells
Would you please tag the item T when its 8OG:A repair function score is -0.1 or above, and F when it is below?

- R69L: F
- C304Y: F
- Q110R: F
- Q181E: T
- R69V: F
- Q239E: T
- Q239A: F
- R87A: T
- L360H: F
- Y100P: F
